# TEST SUMMARY: ATG_SREBP_CIS: Attagene CIS-FACTORIAL HepG2 Assay for human Sterol Regulatory Element Binding (SREBP) (AID 2282962)
# REPORTED CONDITIONS: HepG2 Attagene cis-factorial SREBP reporter, mRNA; actives raise or lower the signal
Active and inactive are the calls of the source. The calls were made as follows: active = hit-call score of the fitted dose curve at least 0.9, where 1 is the maximum; inactive = score below 0.9.
Possible outcomes: active, inactive

MOLECULE | GROUP LABEL
CCCCOC(=O)CCC(C)=O | inactive
C=C(C)C1CC=C(C)C(OC(C)=O)C1 (centres undefined) | inactive
CCOC(=O)C1=NOC(c2ccccc2)(c2ccccc2)C1 | inactive
O=C(Nc1ccccc1)c1cc(Cl)ccc1O | active

----------
# TEST SUMMARY: ATG_TGFb_CIS: Attagene CIS-FACTORIAL HepG2 Assay for human Transforming Growth Factor (TGF) (AID 2282967)
# REPORTED CONDITIONS: HepG2 Attagene CIS TGFb reporter, mRNA transcription; actives raise or lower the signal
The source made the active and inactive calls. Rule for the calls: active = hit-call score of the fitted dose curve at least 0.9, where 1 is the maximum; inactive = score below 0.9.
Possible outcomes: true (1) for active, false (0) for inactive

COMPOUND | GROUP LABEL
CCCCC(CC)COS(=O)(=O)O (stereo not drawn) | false (0)
O=C(Nc1ccccc1)c1cc(Cl)ccc1O | true (1)
CC(=O)OC1CCCCC1C(C)(C)C (stereo not drawn) | false (0)
CCCCCCCCCCCC(=O)OCC | false (0)
COc1ccc(-c2coc3cc(O)cc(O)c3c2=O)cc1 | false (0)
CC(=O)CCC=C(C)C | false (0)
C=C(C)C(=O)OCCCCCCCCCCCC | false (0)
CO[Si](C)(C)OC | false (0)

----------
# TEST SUMMARY: ATG_TGFb_CIS: Attagene CIS-FACTORIAL HepG2 Assay for human Transforming Growth Factor (TGF) (AID 2282967)
# REPORTED CONDITIONS: HepG2 Attagene CIS TGFb reporter, mRNA transcription; actives raise or lower the signal
Calls of active or inactive are those of the source. The calls were made as follows: active = hit-call score of the fitted dose curve at least 0.9, where 1 is the maximum; inactive = score below 0.9.
Classes used: TRUE for active, FALSE for inactive

COMPOUND | GROUP LABEL
CCCCCCCCCCCCCCCCCCOS(=O)(=O)O | FALSE
Cc1c(C(=O)c2c[nH]n(C)c2=O)ccc(S(C)(=O)=O)c1C1=NOCC1 | FALSE
CCCCCCCCCC[N+](C)(CCCCCCCCCC)CCC[Si](OC)(OC)OC | FALSE
CC1CCC(=O)C1=O (centres undefined) | FALSE
COC(Cc1ccccc1)OC | FALSE
Cc1c(Cl)cccc1Cl | FALSE
C=C(C)C1CC=C(C)CC1 (centres undefined) | FALSE
CCCCCCCCCCCC(=O)N(C)CC(=O)O | FALSE
CCOC(=O)OC(=O)OCC | FALSE
C=CC(=O)OCC(C)OCC(C)OCC(C)OC(=O)C=C (centres undefined) | TRUE
CC(C)=CCl | FALSE
COC(OC)(C(=O)c1ccccc1)c1ccccc1 | TRUE
c1ccc2cnccc2c1 | FALSE
CC(C)(C)C1CCC(=O)CC1 | FALSE
CCCCCCCCC(CO)CCCCCC (centres undefined) | FALSE
C=C[C@@]1(C)CC(=O)[C@]2(O)[C@@]3(C)[C@@H](O)CCC(C)(C)[C@@H]3[C@H](O)[C@H](OC(C)=O)[C@@]2(C)O1 | FALSE
CC1=CC=C(C(C)C)CC1 | FALSE
CC1CC(=O)CC(C)(C)C1 (centres undefined) | FALSE
CCCCCC[C@@H](O)C/C=C\CCCCCCCC(=O)OCC(O)CO (some centres undefined) | FALSE
O=S(=O)(O)c1ccc(Nc2nc(Nc3ccc(C=Cc4ccc(Nc5nc(Nc6ccc(S(=O)(=O)O)cc6)nc(N(CCO)CCO)n5)cc4S(=O)(=O)O)c(S(=O)(=O)O)c3)nc(N(CCO)CCO)n2)cc1 | FALSE
O=C1CCCCCCCCCCC1 | FALSE
CO[Si](CCCS)(OC)OC | FALSE
CCCCOCCOCCOC(C)=O | FALSE
C=C(C)C1CC=C(C)C(OC(C)=O)C1 (centres undefined) | FALSE
c1ccc2sc(SSN3CCOCC3)nc2c1 | FALSE
CC(C)C(=O)OCCc1ccccc1 | FALSE
CCc1cccc(C)c1N | FALSE
CCOC(=O)c1ccccc1C | FALSE
C=CCNCC=C | FALSE
Cc1cc(C)n(CO)n1 | FALSE
COC(=O)c1ccc(C(=O)OC)c(C(=O)OC)c1 | FALSE
Oc1ccc(/C=C/c2cc(O)cc(O)c2)cc1 | FALSE
CC(C=O)c1ccccc1 (centres undefined) | FALSE
CCCSSCCC | FALSE
C=C(C)[C@@H]1CC=C(C)CC1 | FALSE
Nc1ccc(Cl)c(N)c1 | FALSE
CC(C)CCOCc1ccccc1 | FALSE
CC(C)(CO)C(O)C(=O)NCCCO (centres undefined) | FALSE
CN(C)Cc1cc(CN(C)C)c(O)c(CN(C)C)c1 | FALSE
C[N+](C)(C)CCCNS(=O)(=O)C(F)(F)C(F)(F)C(F)(F)C(F)(F)C(F)(F)C(F)(F)C(F)(F)C(F)(F)F | TRUE
CC(CC=O)CC(C)(C)C (centres undefined) | FALSE
O=C1CCCCCCCCCCCN1 | FALSE
CC(C)=CCCC(C)=CC#N | FALSE
CCN(CC)c1cccc(C)c1 | FALSE
CC=CC(=O)OCC(C)C | FALSE
CC1=NN(c2ccc(S(=O)(=O)O)cc2)C(=O)C1N=Nc1ccccc1 (centres undefined) | FALSE
CC1(C)CCC[C@]2(C)[C@H]3CC(=O)O[C@]3(C)CC[C@@H]12 | FALSE
CC(=O)CC(=O)Nc1ccccc1C | FALSE
CC(C)[N+](C)(CCOC(=O)C1c2ccccc2Oc2ccccc21)C(C)C | FALSE

----------
# Read-out: E-selectin (Homo sapiens) (UniProt P16581)
# Sequence (P16581 whole entry, looked up): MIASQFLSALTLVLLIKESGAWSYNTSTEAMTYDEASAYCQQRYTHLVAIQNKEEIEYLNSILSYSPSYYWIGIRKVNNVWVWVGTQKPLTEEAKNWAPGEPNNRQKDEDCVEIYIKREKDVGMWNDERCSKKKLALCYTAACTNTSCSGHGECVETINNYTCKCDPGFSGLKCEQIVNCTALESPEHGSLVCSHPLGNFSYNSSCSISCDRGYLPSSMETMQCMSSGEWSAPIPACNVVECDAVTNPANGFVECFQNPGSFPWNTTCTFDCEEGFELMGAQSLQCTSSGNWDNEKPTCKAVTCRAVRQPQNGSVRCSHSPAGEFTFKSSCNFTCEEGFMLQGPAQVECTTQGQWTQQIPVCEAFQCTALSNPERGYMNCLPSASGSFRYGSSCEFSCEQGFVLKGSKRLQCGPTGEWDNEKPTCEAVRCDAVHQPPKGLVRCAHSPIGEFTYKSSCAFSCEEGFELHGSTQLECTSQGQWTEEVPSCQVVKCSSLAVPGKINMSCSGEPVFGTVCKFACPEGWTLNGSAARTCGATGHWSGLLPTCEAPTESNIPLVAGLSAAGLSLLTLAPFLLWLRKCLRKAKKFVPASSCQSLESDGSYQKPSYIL
# TEST SUMMARY: BSK_3C_Eselectin: BioMAP Diversity Plus: 3C Assay for Eselectin Biomarker Activity (AID 2283015)
# REPORTED CONDITIONS: primary human endothelial cells (HUVEC); actives raise or lower the signal
Active and inactive are the calls of the source. Rule for the calls: active = hit-call score of the fitted dose curve at least 0.9, where 1 is the maximum; inactive = score below 0.9.
Classes used: T (active), F (inactive)

COMPOUND | GROUP LABEL
CC(c1cc(C(C)(C)C)cc(C(C)(C)C)c1O)c1cc(C(C)(C)C)cc(C(C)(C)C)c1O | T
c1ccc2sc(SSN3CCOCC3)nc2c1 | T
C=CC(=O)OCC(C)OCC(C)OCC(C)OC(=O)C=C (stereo not given) | T
Fc1ccc(Br)cc1 | F
Clc1cc(Cl)c(Cl)c(Cl)c1Cl | F
Nc1cccc(N)n1 | F
Oc1ccc(/C=C/c2cc(O)cc(O)c2)cc1 | F
CCCCCCC=O | F
C=CCCCCCCCCC=O | F
CC/C=C\CCOC(=O)c1ccccc1O | T
CC(C)C(=O)OCCc1ccccc1 | F
CC(CCC(=O)O)(c1ccc(O)cc1)c1ccc(O)cc1 | F
CCCCC1C(=O)N(c2ccccc2)N(c2ccccc2)C1=O | F
O=C(O)C(F)(F)C(F)(F)C(F)(F)C(F)(F)C(=O)O | F
O=C(Oc1ccccc1)c1ccccc1C(=O)Oc1ccccc1 | F
C=CC(=O)OCCCCCCCC(C)C | T
CCOC(=O)/C=C\C(=O)OCC | F
Oc1ccccc1Cc1ccccc1O | F
CCN1CN(CC)CN(CC)C1 | F
C=CC(=O)OCCCCCCOC(=O)C=C | T
CC/C=C\C/C=C\C/C=C\CCCCCCCC(=O)OC | T
COc1ccc(C(=O)c2ccccc2)c(O)c1 | F
CCNc1nc(NC(C)(C)C)nc(OC)n1 | F
Cc1c(O)cccc1O | F
CC=C(C)C=CC=C(C)C | T

----------
# SUBJECT OF TEST: Estrogen receptor (Homo sapiens)
# TEST SUMMARY: ATG_ERa_TRANS: Attagene TRANS-FACTORIAL HepG2 Assay for human Estrogen Receptor alpha (ERa) (AID 2282970)
# REPORTED CONDITIONS: HepG2 Attagene TRANS ERa GAL4 reporter, mRNA
# Method: ATG_TRANS is a cell-based, multiplexed-readout assay that uses HepG2, a human liver cell line, with measurements taken at 24 hours after chemical dosing in a 24-well plate.ATG_ERa_TRANS is one of 30 assay component(s) measured or calculated from the ATG_TRANS assay. […] This assay endpoint, ATG_ERa_TRANS, was analyzed in the positive analysis fitting direction relative to DMSO as the negative control and baseline of activity. […]
Inconclusive results are not listed. Active and inactive are the calls of the source. How the source made its calls: active means hit-call score of the fitted dose curve at least 0.9, where 1 is the maximum; inconclusive means response in the unintended direction; inactive means score below 0.9.
Outcomes: active, inactive

COMPOUND | GROUP LABEL
CCCCCCCOC(=O)c1ccc(O)cc1 | active
CCc1cccc(C)c1N | inactive
CC(=O)OCCc1ccccc1 | inactive
CCCCCCO | inactive
COC(=O)CC(C)CCC=C(C)C (centres undefined) | inactive
c1ccc(Nc2cccc3ccccc23)cc1 | active
CC(CCC(=O)O)(c1ccc(O)cc1)c1ccc(O)cc1 | active
Nc1ccc(C(=O)OCCCOC(=O)c2ccc(N)cc2)cc1 | inactive
CC1(C)[C@@H]2CC[C@@]1(C)C(=O)C2 | inactive
C[N+](C)(C)CCCNS(=O)(=O)C(F)(F)C(F)(F)C(F)(F)C(F)(F)C(F)(F)C(F)(F)C(F)(F)C(F)(F)F | inactive
C=CCCCCCCCCOC(C)=O | inactive
CCCc1ccc(O)c(OC)c1 | inactive
COc1ccc(C(=O)c2ccccc2)c(O)c1 | active
CCCCNS(=O)(=O)c1ccccc1 | inactive
NNS(=O)(=O)c1ccc(Oc2ccc(S(=O)(=O)NN)cc2)cc1 | inactive
O=C(O)C(F)(F)C(F)(F)C(F)(F)C(F)(F)C(=O)O | inactive
C=C(C)OC(C)=O | inactive
c1ccc2sc(SSN3CCOCC3)nc2c1 | inactive
CCCCCCCCCC(C)=O | inactive
C1CNCCN1 | inactive
CC(=O)CCC=C(C)C | inactive
CCC(C)(O)CCCC(C)C (centres undefined) | inactive
CC1=CCC2CC1C2(C)C (centres undefined) | inactive
Cc1cc(C)n(CO)n1 | inactive
